ASSAY OVERVIEW: self-splicing fitness, log relative to wild type (ln ratio); higher = more splicing; Tetrahymena group I intron in knt gene, E. coli kanamycin selection, DiMSum; sequences stand for … in CUCUCU…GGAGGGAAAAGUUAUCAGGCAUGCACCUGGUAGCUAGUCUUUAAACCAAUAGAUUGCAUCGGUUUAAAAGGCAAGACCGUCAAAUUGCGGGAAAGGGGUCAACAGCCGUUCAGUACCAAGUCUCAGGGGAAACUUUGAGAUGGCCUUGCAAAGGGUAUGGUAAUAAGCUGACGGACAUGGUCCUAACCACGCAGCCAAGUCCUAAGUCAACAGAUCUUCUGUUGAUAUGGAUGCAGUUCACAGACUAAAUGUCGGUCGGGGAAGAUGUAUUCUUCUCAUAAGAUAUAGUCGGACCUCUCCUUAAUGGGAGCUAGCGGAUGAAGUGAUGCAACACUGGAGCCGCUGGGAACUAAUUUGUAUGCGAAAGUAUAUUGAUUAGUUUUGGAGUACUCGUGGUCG;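 also: selection with 25 µg/mL kanamycin versus none on LB agar overnight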
ASSAY CONDITIONS: 37 °C
The sequences listed here are annotated with their self-splicing fitness (ln).

>  <SEQUENCE TEXT>
UAGUAGCAAUAUUACGGCCA

>  <self-splicing fitness (ln)>
0.0405

$$$$
>  <SEQUENCE TEXT>
UUACAGCAAUAUUACGCUUA

>  <self-splicing fitness (ln)>
-0.114

$$$$
>  <SEQUENCE TEXT>
UGCGAGCAAUAUUACGAAGU

>  <self-splicing fitness (ln)>
-0.334

$$$$
>  <SEQUENCE TEXT>
UCUGAGCAAUAUUACGUUUC

>  <self-splicing fitness (ln)>
-0.767

$$$$
>  <SEQUENCE TEXT>
GGGUAGCAAUAUUACGCGUA

>  <self-splicing fitness (ln)>
-0.35

$$$$
>  <SEQUENCE TEXT>
UGGAAGCAAUAUUACGACGG

>  <self-splicing fitness (ln)>
-0.14

$$$$
>  <SEQUENCE TEXT>
CCCUAGCAAUAUUACGCAAU

>  <self-splicing fitness (ln)>
-2.02

$$$$
>  <SEQUENCE TEXT>
UAAGAGCAAUAUUACGGGAC

>  <self-splicing fitness (ln)>
-1.86

$$$$
>  <SEQUENCE TEXT>
UAUGAGCAAUAUUACGCUUA

>  <self-splicing fitness (ln)>
-1.47

$$$$
>  <SEQUENCE TEXT>
AAUUAGCAAUAUUACGUGCC

>  <self-splicing fitness (ln)>
-0.857

$$$$
>  <SEQUENCE TEXT>
AGAGAGCAAUAUUACGUCGG

>  <self-splicing fitness (ln)>
-2.2

$$$$
>  <SEQUENCE TEXT>
CCCCAGCAAUAUUACGUAGC

>  <self-splicing fitness (ln)>
-2.93

$$$$
>  <SEQUENCE TEXT>
ACUGAGCAAUAUUACGCAGG

>  <self-splicing fitness (ln)>
-1.14

$$$$
>  <SEQUENCE TEXT>
GUAGAGCAAUAUUACGCGUC

>  <self-splicing fitness (ln)>
-0.0736

$$$$
>  <SEQUENCE TEXT>
UACCAGCAAUAUUACGAGGU

>  <self-splicing fitness (ln)>
-3.39

$$$$
>  <SEQUENCE TEXT>
CGGAAGCAAUAUUACGCGAG

>  <self-splicing fitness (ln)>
-1.24

$$$$
>  <SEQUENCE TEXT>
UCAAAGCAAUAUUACGGUAU

>  <self-splicing fitness (ln)>
-3.55

$$$$
>  <SEQUENCE TEXT>
GCGUAGCAAUAUUACGUAAC

>  <self-splicing fitness (ln)>
-0.0467

$$$$
>  <SEQUENCE TEXT>
GUAGAGCAAUAUUACGAACU

>  <self-splicing fitness (ln)>
-0.867

$$$$
>  <SEQUENCE TEXT>
GAUGAGCAAUAUUACGUGAG

>  <self-splicing fitness (ln)>
-2.06

$$$$
>  <SEQUENCE TEXT>
GGUGAGCAAUAUUACGUCGG

>  <self-splicing fitness (ln)>
-2.5

$$$$
>  <SEQUENCE TEXT>
CCACAGCAAUAUUACGGGGA

>  <self-splicing fitness (ln)>
-2.51

$$$$
>  <SEQUENCE TEXT>
GGGUAGCAAUAUUACGCUAU

>  <self-splicing fitness (ln)>
-2.98

$$$$
>  <SEQUENCE TEXT>
GGUAAGCAAUAUUACGUUUA

>  <self-splicing fitness (ln)>
-0.278

$$$$
>  <SEQUENCE TEXT>
CCGAAGCAAUAUUACGAGCA

>  <self-splicing fitness (ln)>
-2.9

$$$$
>  <SEQUENCE TEXT>
ACAAAGCAAUAUUACGCUGC

>  <self-splicing fitness (ln)>
-1.26

$$$$
>  <SEQUENCE TEXT>
ACACAGCAAUAUUACGCUAU

>  <self-splicing fitness (ln)>
-1.53

$$$$
>  <SEQUENCE TEXT>
UGCAAGCAAUAUUACGGACU

>  <self-splicing fitness (ln)>
0.286

$$$$
>  <SEQUENCE TEXT>
UCAAAGCAAUAUUACGUAAC

>  <self-splicing fitness (ln)>
-2.39

$$$$
>  <SEQUENCE TEXT>
GGCAAGCAAUAUUACGUCUG

>  <self-splicing fitness (ln)>
-1.09

$$$$
>  <SEQUENCE TEXT>
AAGAAGCAAUAUUACGGUCU

>  <self-splicing fitness (ln)>
-0.233

$$$$
>  <SEQUENCE TEXT>
AUAAAGCAAUAUUACGGGAA

>  <self-splicing fitness (ln)>
-0.426

$$$$
>  <SEQUENCE TEXT>
AUUAAGCAAUAUUACGUCUU

>  <self-splicing fitness (ln)>
-0.387

$$$$
>  <SEQUENCE TEXT>
AGUUAGCAAUAUUACGUGUC

>  <self-splicing fitness (ln)>
-1.42

$$$$
>  <SEQUENCE TEXT>
GCGAAGCAAUAUUACGGUGG

>  <self-splicing fitness (ln)>
-3.08

$$$$
>  <SEQUENCE TEXT>
GCGUAGCAAUAUUACGCGCU

>  <self-splicing fitness (ln)>
-2.84

$$$$
>  <SEQUENCE TEXT>
CUCCAGCAAUAUUACGCCGU

>  <self-splicing fitness (ln)>
-3.11

$$$$
>  <SEQUENCE TEXT>
AUAAAGCAAUAUUACGCCUC

>  <self-splicing fitness (ln)>
-0.532

$$$$
>  <SEQUENCE TEXT>
GGAUAGCAAUAUUACGUUAU

>  <self-splicing fitness (ln)>
-3.28

$$$$
>  <SEQUENCE TEXT>
AGCGAGCAAUAUUACGUACC

>  <self-splicing fitness (ln)>
-0.589

$$$$
>  <SEQUENCE TEXT>
CAUAAGCAAUAUUACGGUGC

>  <self-splicing fitness (ln)>
-3.18

$$$$
>  <SEQUENCE TEXT>
CUAAAGCAAUAUUACGGUAU

>  <self-splicing fitness (ln)>
-2.58

$$$$
>  <SEQUENCE TEXT>
UAUCAGCAAUAUUACGGUUU

>  <self-splicing fitness (ln)>
-0.507

$$$$
>  <SEQUENCE TEXT>
CAUAAGCAAUAUUACGUGCU

>  <self-splicing fitness (ln)>
-1.89

$$$$
>  <SEQUENCE TEXT>
AUGGAGCAAUAUUACGGCCG

>  <self-splicing fitness (ln)>
-0.481

$$$$
>  <SEQUENCE TEXT>
CCAUAGCAAUAUUACGCACG

>  <self-splicing fitness (ln)>
-0.715

$$$$
>  <SEQUENCE TEXT>
CAGUAGCAAUAUUACGAUGU

>  <self-splicing fitness (ln)>
-1.65

$$$$
>  <SEQUENCE TEXT>
ACGGAGCAAUAUUACGCAAA

>  <self-splicing fitness (ln)>
-1.58

$$$$
>  <SEQUENCE TEXT>
AAAGAGCAAUAUUACGUACC

>  <self-splicing fitness (ln)>
-2.03

$$$$
>  <SEQUENCE TEXT>
CGGAAGCAAUAUUACGACUC

>  <self-splicing fitness (ln)>
-1.1

$$$$
>  <SEQUENCE TEXT>
UGUAAGCAAUAUUACGCAAG

>  <self-splicing fitness (ln)>
-2.66

$$$$
>  <SEQUENCE TEXT>
CUCCAGCAAUAUUACGUGCC

>  <self-splicing fitness (ln)>
-0.249

$$$$
>  <SEQUENCE TEXT>
AGGGAGCAAUAUUACGGUCU

>  <self-splicing fitness (ln)>
-0.696

$$$$
>  <SEQUENCE TEXT>
UCCGAGCAAUAUUACGUACU

>  <self-splicing fitness (ln)>
-2.55

$$$$
>  <SEQUENCE TEXT>
GGUCAGCAAUAUUACGGAAA

>  <self-splicing fitness (ln)>
-0.845

$$$$
>  <SEQUENCE TEXT>
GGUAAGCAAUAUUACGUGCU

>  <self-splicing fitness (ln)>
-1.36

$$$$
>  <SEQUENCE TEXT>
CAAGAGCAAUAUUACGUGAU

>  <self-splicing fitness (ln)>
-2.34

$$$$
>  <SEQUENCE TEXT>
CUAUAGCAAUAUUACGAUCA

>  <self-splicing fitness (ln)>
0.388

$$$$
>  <SEQUENCE TEXT>
AACUAGCAAUAUUACGUGGU

>  <self-splicing fitness (ln)>
-2.86

$$$$
>  <SEQUENCE TEXT>
GAAGAGCAAUAUUACGUGUA

>  <self-splicing fitness (ln)>
-2.76

$$$$
>  <SEQUENCE TEXT>
AGCCAGCAAUAUUACGAAUG

>  <self-splicing fitness (ln)>
-2.45

$$$$
>  <SEQUENCE TEXT>
CUUGAGCAAUAUUACGAGGG

>  <self-splicing fitness (ln)>
-2.37

$$$$
>  <SEQUENCE TEXT>
GUGGAGCAAUAUUACGCUUG

>  <self-splicing fitness (ln)>
-1.25

$$$$
>  <SEQUENCE TEXT>
UAACAGCAAUAUUACGGCAA

>  <self-splicing fitness (ln)>
0.203

$$$$
>  <SEQUENCE TEXT>
ACAUAGCAAUAUUACGAGAU

>  <self-splicing fitness (ln)>
-2.66

$$$$
>  <SEQUENCE TEXT>
AGAUAGCAAUAUUACGUUUA

>  <self-splicing fitness (ln)>
-1.43

$$$$
>  <SEQUENCE TEXT>
UAAGAGCAAUAUUACGCAUA

>  <self-splicing fitness (ln)>
-1.59

$$$$
